# IC50 per entry for MAP4K1 (Homo sapiens, UniProt Q92918)
measurement.name: IC50 (nM)

- CC1(C)CN=C(Nc2cc(F)c(Oc3ccnc4[nH]cc(C5(C(F)(F)F)CCC5)c34)c(F)c2)OC1 [Example 4]: 6.2
- Fc1cc(NC2=NCC3(COC3)CO2)cc(F)c1Oc1ccnc2[nH]cc(C3(C(F)(F)F)CCC3)c12 [Example 14]: 6.9

###

- target.or.test.system: human TBK1 (Homo sapiens, UniProt Q9UHD2)
- Construct: Recombinant full-length N-terminally His-tagged human TBK1; His (N)
- Sequence (Q9UHD2 1-729): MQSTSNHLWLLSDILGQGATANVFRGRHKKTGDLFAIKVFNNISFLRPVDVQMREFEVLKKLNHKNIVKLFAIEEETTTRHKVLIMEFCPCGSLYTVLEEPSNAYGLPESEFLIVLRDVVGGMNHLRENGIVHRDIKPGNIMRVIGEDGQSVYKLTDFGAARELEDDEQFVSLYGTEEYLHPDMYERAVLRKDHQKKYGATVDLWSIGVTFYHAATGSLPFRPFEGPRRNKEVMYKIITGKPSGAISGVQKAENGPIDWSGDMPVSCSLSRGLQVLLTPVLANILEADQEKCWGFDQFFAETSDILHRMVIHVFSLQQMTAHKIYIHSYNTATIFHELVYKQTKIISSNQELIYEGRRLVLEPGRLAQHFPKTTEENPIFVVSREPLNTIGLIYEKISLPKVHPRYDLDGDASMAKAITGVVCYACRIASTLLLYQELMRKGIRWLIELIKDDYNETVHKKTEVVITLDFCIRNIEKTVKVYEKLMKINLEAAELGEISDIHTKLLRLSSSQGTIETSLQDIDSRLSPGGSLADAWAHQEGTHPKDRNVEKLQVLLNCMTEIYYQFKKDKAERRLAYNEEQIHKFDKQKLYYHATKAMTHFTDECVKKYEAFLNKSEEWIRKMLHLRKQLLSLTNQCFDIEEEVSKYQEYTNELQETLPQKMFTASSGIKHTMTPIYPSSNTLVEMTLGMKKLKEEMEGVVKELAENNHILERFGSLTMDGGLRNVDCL
- protocol.details: TBK1 high ATP kinase assay (TR-FRET)
- assay.conditions: 1 mM ATP, selectivity assay, 15 min preincubation
pIC50: −log10 of the molar value.
measurement.name: pIC50

* Fc1cc(NC2=NCC3(CCC3)CO2)cc(F)c1Oc1ccnc2[nH]cc(C3(C(F)(F)F)CC3)c12 | < 4.70
* Fc1cc(NC2=NCC3(COC3)CO2)cc(F)c1Oc1ccnc2[nH]cc(C3(C(F)(F)F)CCC3)c12 | < 4.70
* CC1(C)CN=C(Nc2cc(F)c(Oc3ccnc4[nH]cc(C5(C(F)(F)F)CC5)c34)c(F)c2)OC1 | < 4.70

Form field pIC50, entry Fc1cc(NC2=NCC3(CCOC3)CO2)cc(F)c1Oc1ccnc2[nH]cc(C3(C(F)(F)F)CC3)c12 (single isomer, unassigned; enantiomer 2) [Example 7] : < 4.70

Form field pIC50, entry Fc1cc(NC2=NCC3(CCOC3)CO2)cc(F)c1Oc1ccnc2[nH]cc(C3(C(F)(F)F)CCC3)c12 (racemic) : < 4.70

Form field pIC50, entry `Fc1cc(NC2=NCC3(CCC3)CO2)cc(F)c1Oc1ccnc2[nH]cc(C3(C(F)(F)F)CCC3)c12` : < 4.70

Form field pIC50, entry `CC1(C)CN=C(Nc2cc(F)c(Oc3ccnc4[nH]cc(C5(C(F)(F)F)CCC5)c34)c(F)c2)OC1` : < 4.70

Form field pIC50, entry `Fc1cc(NC2=NCC3(CCOCC3)CO2)cc(F)c1Oc1ccnc2[nH]cc(C3(C(F)(F)F)CC3)c12` : < 4.70

Form field pIC50, entry `Fc1cc(NC2=NCC3(COC3)CO2)cc(F)c1Oc1ccnc2[nH]cc(C3(C(F)(F)F)CC3)c12` : < 4.70

Form field pIC50, entry Fc1cc(NC2=NCC3(CCOC3)CO2)cc(F)c1Oc1ccnc2[nH]cc(C3(C(F)(F)F)CC3)c12 (single isomer, unassigned; enantiomer 1) [Example 6] : < 4.70

Form field pIC50, entry `Fc1cc(NC2=NCC3(CC3)CO2)cc(F)c1Oc1ccnc2[nH]cc(C3(C(F)(F)F)CC3)c12` : < 4.70

Form field pIC50, entry `Fc1cc(NC2=NCC3(CC3)CO2)cc(F)c1Oc1ccnc2[nH]cc(C3(C(F)(F)F)CCC3)c12` : < 4.70

Form field pIC50, entry `Fc1cc(NC2=NCC3(CCOCC3)CO2)cc(F)c1Oc1ccnc2[nH]cc(C3(C(F)(F)F)CCC3)c12` : < 4.70

Form field pIC50, entry Fc1cc(NC2=NCC3(CCOC3)CO2)cc(F)c1Oc1ccnc2[nH]cc(C3(C(F)(F)F)CC3)c12 (racemic) [Example 5] : < 4.70
